- SYSTEM_UNDER_TEST: recombinant human ERβ (Homo sapiens, UniProt Q92731)
- Construct: purchased PanVera Corporation (Madison, Wis.); host or cells: baculovirus-mediated expression system
- Sequence (Q92731 whole entry): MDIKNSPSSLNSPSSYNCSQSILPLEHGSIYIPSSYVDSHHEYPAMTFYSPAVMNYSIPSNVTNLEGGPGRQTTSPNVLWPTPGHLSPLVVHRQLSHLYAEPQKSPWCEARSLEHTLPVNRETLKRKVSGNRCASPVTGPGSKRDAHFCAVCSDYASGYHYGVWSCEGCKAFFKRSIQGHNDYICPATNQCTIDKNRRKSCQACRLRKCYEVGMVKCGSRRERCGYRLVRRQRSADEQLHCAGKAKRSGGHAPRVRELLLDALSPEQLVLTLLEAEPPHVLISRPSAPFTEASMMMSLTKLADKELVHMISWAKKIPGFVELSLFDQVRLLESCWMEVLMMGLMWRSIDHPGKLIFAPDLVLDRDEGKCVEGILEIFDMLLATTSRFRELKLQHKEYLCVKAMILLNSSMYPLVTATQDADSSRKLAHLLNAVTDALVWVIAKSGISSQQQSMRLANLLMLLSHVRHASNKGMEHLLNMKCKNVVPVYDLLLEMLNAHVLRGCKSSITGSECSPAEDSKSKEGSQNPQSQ
- EXPERIMENT_SUMMARY: ERβ binding assay: competition of [3H]E2 binding by competing estrogens
pIC50: −log10 of the molar value.

COMPOUND: COc1c(O)ccc2c1CCC1C2CCC2(C)C(O)CCC12 (stereo not shown) [4-MeO-E2, 4-Methoxyestradiol]
RELATION_QUALIFIER: =
pIC50: 6.05
//
COMPOUND: O=C(CC(=O)c1ccccc1)c1ccccc1 [DBM, Dibenzoylmethane, reference compound]
RELATION_QUALIFIER: <
pIC50: 6.00
//
COMPOUND: C[C@]12CC[C@@H]3c4cc(O)c(O)cc4CC[C@H]3[C@@H]1CC[C@@H]2O [2-OH-E2, 2-Hydroxyestradiol]
RELATION_QUALIFIER: =
pIC50: 7.60
//
COMPOUND: COc1c(O)ccc2c1CCC1C2CCC2(C)C(=O)CCC12 (stereo not shown) [4-MeO-E1, 4-Methoxyestrone]
RELATION_QUALIFIER: <
pIC50: 6.00

Entry source: patent US20080293683A1
